- Test system: Escherichia coli
- assay_details: Inhibition of Escherichia coli DNA topoisomerase 4 at 200 uM relative to control
Active and inactive are the calls of the source. No cut-off for these calls is given here.

chemical_smiles | inhibition
O=C(Cc1ccccc1)NC[C@@H]1O[C@H](O[C@H]2[C@@H](O)[C@H](O[C@@H]3[C@@H](O)[C@H](NC(=O)Cc4ccccc4)C[C@H](NC(=O)Cc4ccccc4)[C@H]3O[C@H]3O[C@H](CNC(=O)Cc4ccccc4)[C@@H](O)[C@H](O)[C@H]3NC(=O)Cc3ccccc3)O[C@@H]2CO)[C@H](NC(=O)Cc2ccccc2)[C@@H](O)[C@@H]1O | inactive
CC(=O)NC[C@@H]1O[C@H](O[C@H]2[C@@H](O)[C@H](O[C@@H]3[C@@H](O)[C@H](NC(C)=O)C[C@H](NC(C)=O)[C@H]3O[C@H]3O[C@H](CNC(C)=O)[C@@H](O)[C@H](O)[C@H]3NC(C)=O)O[C@@H]2CO)[C@H](NC(C)=O)[C@@H](O)[C@@H]1O | inactive
O=C(NC[C@@H]1O[C@H](O[C@H]2[C@@H](O)[C@H](O[C@@H]3[C@@H](O)[C@H](NC(=O)OCc4ccccc4)C[C@H](NC(=O)OCc4ccccc4)[C@H]3O[C@H]3O[C@H](CNC(=O)OCc4ccccc4)[C@@H](O)[C@H](O)[C@H]3NC(=O)OCc3ccccc3)O[C@@H]2CO)[C@H](NC(=O)OCc2ccccc2)[C@@H](O)[C@@H]1O)OCc1ccccc1 | inactive

----------
- Tested on: Escherichia coli
- assay_details: Inhibition of Escherichia coli DNA topoisomerase 4 at 200 uM relative to control
Calls of active or inactive are those of the source. No cut-off for these calls is given here.

chemical_smiles | inhibition
O=C(NC[C@H]1O[C@H](O[C@H]2[C@H](O)[C@@H](O[C@H]3O[C@H](CO)[C@@H](O)[C@H](NC(=O)c4ccccc4)[C@H]3O)[C@H](NC(=O)c3ccccc3)C[C@@H]2NC(=O)c2ccccc2)[C@H](O)[C@@H](O)[C@@H]1O)c1ccccc1 | inactive
CN(C(=O)OCc1ccccc1)[C@@H]1[C@@H](O[C@H]2O[C@H](CO)[C@@H](NC(=O)OCc3ccccc3)[C@H](O)[C@H]2O)O[C@H]2C[C@@H](NC(=O)OCc3ccccc3)[C@@H](O[C@H]3[C@H](O)[C@@H](O)[C@H](NC(=O)OCc4ccccc4)C[C@@H]3NC(=O)OCc3ccccc3)O[C@@H]2[C@@H]1O | inactive
O=C(Cc1ccccc1)NC[C@H]1O[C@H](O[C@H]2[C@H](O)[C@@H](O[C@H]3O[C@H](CO)[C@@H](O)[C@H](NC(=O)Cc4ccccc4)[C@H]3O)[C@H](NC(=O)Cc3ccccc3)C[C@@H]2NC(=O)Cc2ccccc2)[C@H](O)[C@@H](O)[C@@H]1O | inactive
O=C(NC[C@H]1O[C@H](O[C@H]2[C@H](O)[C@@H](O[C@H]3O[C@H](CO)[C@@H](O)[C@H](NC(=O)OCc4ccccc4)[C@H]3O)[C@H](NC(=O)OCc3ccccc3)C[C@@H]2NC(=O)OCc2ccccc2)[C@H](O)[C@@H](O)[C@@H]1O)OCc1ccccc1 | inactive
